- target_under_test: USP Reference Standard Pancrelipase (Sus scrofa, UniProt P00591)
- Sequence (P00591 whole entry): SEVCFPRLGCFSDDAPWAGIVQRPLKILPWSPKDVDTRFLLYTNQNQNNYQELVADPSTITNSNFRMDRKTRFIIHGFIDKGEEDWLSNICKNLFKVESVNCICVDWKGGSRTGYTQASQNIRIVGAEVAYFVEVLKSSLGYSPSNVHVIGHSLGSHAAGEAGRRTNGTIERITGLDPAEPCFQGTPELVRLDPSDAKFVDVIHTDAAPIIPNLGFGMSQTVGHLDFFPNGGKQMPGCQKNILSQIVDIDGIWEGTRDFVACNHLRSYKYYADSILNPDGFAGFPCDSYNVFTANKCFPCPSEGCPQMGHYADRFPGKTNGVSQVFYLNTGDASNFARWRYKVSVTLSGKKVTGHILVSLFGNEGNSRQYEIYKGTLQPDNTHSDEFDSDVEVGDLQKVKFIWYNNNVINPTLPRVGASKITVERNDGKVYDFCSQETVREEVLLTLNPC
- test_description: Lipase assay (USP titrimetric): inhibition of pancrelipase at pH 9.0
- Assay type: biochemical
- stated_conditions: IC50 for inhibitors of pancrelipase, pH 9.0
property_measured: IC50 (mM)
Answers are plain numbers, in mM.

Lookup: Which IC50 value is on record for CC(C)(C)NC(=O)[C@@H]1C[C@@H]2CCCC[C@@H]2CN1C[C@@H](O)[C@H](Cc1ccccc1)NC(=O)[C@H](CC(N)=O)NC(=O)c1ccc2ccccc2n1 [FORTOVASE ®, Saquinavir] ?
Found: 3.23
